# System: MDA-MB-231 breast
# ASSAY_EXPLANATION: NCI tumour cell line growth inhibition, 48 h
Catalogue of TGI values

The cases that follow already have their TGI on record.
COMPOUND	SYSTEM_UNDER_TEST	TEST_VALUE
CO[C@@H](C(=O)N1Cc2[nH]nc(NC(=O)c3ccc(N4CCN(C)CC4)cc3)c2C1)c1ccccc1	MDA-MB-231 breast	> 70.5 µM
Cc1nn(-c2ccccc2)c(-n2ccnc2)c1/C=N/Nc1nc(-c2ccc(Cl)c(Cl)c2)cs1	MDA-MB-231 breast	11.2 µM
CCC(/C=C(C)/C=C/C(=O)c1c(O)c(-c2ccc(O)cc2)c[nH]c1=O)CO (stereo not given)	MDA-MB-231 breast	29.5 µM

[Q] // TGI lookup, key: COc1ccc(-c2cc3c(OC)c(OC)c(OC)cc3oc2=O)cc1
[A] 62.5 µM

[Q] // TGI lookup, key: N#CCCN(CCNc1ccccc1)C(=O)Nc1ccc(NC(=O)N(CCC#N)CCNc2ccccc2)cc1
[A] > 100 µM

[Q] // TGI lookup, key: CC1CCC(C(C)C2C(O)CC3C4CC=C5CC(O)CCC5(C)C4CCC32C)NC1 (stereo not given)
[A] 81.6 µM

----------
Catalogue of TGI values
# Tested on: MCF7 breast
# ASSAY_EXPLANATION: NCI tumour cell line growth inhibition, 48 h

The cases that follow already have their TGI on record.
COMPOUND	TEST_VALUE
CC1=C(C#N)C2C(=C(C)N1)C(N)=Nc1ccccc12 (stereo not given)	> 100 µM
CC1(C)CC2=C(SC3C=CC=CC3N2)C(=O)C1C(=O)C(N)=O (stereo not given)	> 100 µM
CNc1ccc(S(=O)Nc2ccc(OC)cc2)cc1 (stereo not given)	> 100 µM
C=C1C[C@]23CC[C@@H]4C(CO)(CO)CC(=O)C[C@]4(C)[C@@H]2CC[C@H]1C3	> 100 µM
CC1CN=C(N(C)C(=O)Nc2ccc(Cl)cc2)S1 (stereo not given)	> 100 µM
CCC(CC)COC(=O)[C@H](C)N[P@](=O)(OC[C@H]1O[C@@](C#N)(c2ccc3c(N)ncnn23)[C@H](O)[C@@H]1O)Oc1ccccc1	27.3 µM
O=C(NC1CCCCC1)NS(=O)(=O)c1ccc(-n2nc3c(c2-c2cccs2)Cc2ccccc2-3)cc1	> 100 µM
CSc1nc(-c2ccccc2)c(C#N)c(=O)[nH]1	> 100 µM

[Q] // TGI lookup, key: Cc1ccc2c(=O)cc(-c3cccc(Cl)c3)[nH]c2n1
[A] > 36 µM

[Q] // TGI lookup, key: CCC#CCCCCCCCCC(F)C(=O)O (stereo not given)
[A] > 100 µM

----------
# Test system: NCI-H460 lung
# ASSAY_EXPLANATION: NCI tumour cell line growth inhibition, 48 h
REPORTED_ENDPOINT: TGI

The cases that follow already have their TGI on record.
MOLECULE	SYSTEM_UNDER_TEST	TEST_VALUE
Cc1nc2nnnn2c2c1C(=O)Nc1ccccc1N2	NCI-H460 lung	> 100 µM
COC(=O)C(Cc1c[nH]c2ccccc12)NC(=O)C(Cc1c[nH]c2ccccc12)NC(=O)OCc1ccccc1 (stereo not drawn)	NCI-H460 lung	32 µM
CCOC(=O)Cn1c(=O)n(C)c(=O)c2[nH]cnc21	NCI-H460 lung	> 100 µM

For the next question, use this molecule.
[Q] // TGI lookup, key: CN1CCN(Cc2ccc(NC(=O)c3cnc(F)c(C#Cc4cnc(N)c5ncccc45)c3)cc2C(F)(F)F)CC1
[A] 6.49 µM
